# protocol.details: In vitro cytotoxic activity, Hek293
# Assay type: cell-based
# test.conditions: human, Hek293 cells; unit inferred
recorded.metric: IC50

# molecule, recorded.metric, result
rows = [
    ("O=c1[nH]c2cc(S(=O)(=O)NC3CC3)ccc2n1Cc1ccccc1 [5h]", "IC50", "370 µM"),
    ("O=c1[nH]c2cc(S(=O)(=O)N3CCOCC3)ccc2n1Cc1ccccc1 [5a]", "IC50", "> 10000 µM"),
    ("O=c1[nH]c2cc(S(=O)(=O)NC3CC3)ccc2n1CCc1ccccc1 [5m]", "IC50", "448 µM"),
]

For each of the items listed, what is its IC50?
1. Cc1ccccc1NS(=O)(=O)c1ccc2c(c1)[nH]c(=O)n2Cc1ccccc1 [5j]
2. O=c1[nH]c2cc(S(=O)(=O)N3CCOCC3)ccc2n1CCc1ccccc1 [5o]
3. COc1cccc2c1C(=O)c1c(O)c3c(c(O)c1C2=O)C[C@@](O)(C(=O)CO)C[C@@H]3O[C@H]1C[C@H](N)[C@H](O)[C@H](C)O1 [Doxorubicin, reference compound]

Ans:
["666 µM", "> 10000 µM", "12.2 µM"]

Please report IC50 for every entry that follows.
1. CN1CCN(S(=O)(=O)c2ccc3c(c2)[nH]c(=O)n3Cc2ccccc2)CC1 [5b]
2. O=c1[nH]c2cc(S(=O)(=O)N3CCCCC3)ccc2n1CCc1ccccc1 [5n]
3. CC(C)NS(=O)(=O)c1ccc2c(c1)[nH]c(=O)n2Cc1ccccc1 [5i]

Ans:
1: 293 µM; 2: > 10000 µM; 3: 709 µM

Values compiled from paper PMC6273811.
